B1: NLV3 TCR beta chain (CDR3β only) (parent)
chain: ASSPTGGSPSPLH
partner: MLVPMVATV

# Variants of: B1
# Assay Procedure: T-Switch: Jurkat TCRβ−/− cells expressing a CDR3 saturation-mutagenesis library, stained with two peptide-HLA-A*02:01 tetramers (original and novel peptide) plus anti-CD3, FACS-sorted into four gates, gDNA sequenced
# Details: with HLA-A*02:01 with peptide … (NLV 3-1, the original bait), tetramers 1 µg/mL, 30 min on ice, DP and SW gates expanded about 10 days between rounds ('two to three rounds of selection' in the Methods), gate SP: higher = more of the variant in the gate that binds the original peptide and not the novel one = retained original binding. Fold enrichment of the CDR3 variant in one FACS gate of a two-tetra, unresolved parent, parent is a CDR3 fragment, scale: fold enrichment, numbering: sequential-on-construct, sequence …

{"columns": ["Variant Name", "enrichment"],
 "data": [
  ["[…] (CDR3 as printed); S2F derived by comparing it with the table's wild-type CDR3 ASSPTGGSPSPLH", 3.1],
  ["[…] (CDR3 as printed); S3N derived by comparing it with the table's wild-type CDR3 ASSPTGGSPSPLH", 4.09],
  ["[…] (CDR3 as printed); P11D derived by comparing it with the table's wild-type CDR3 ASSPTGGSPSPLH", 0],
  ["[…] (CDR3 as printed); P9E derived by comparing it with the table's wild-type CDR3 ASSPTGGSPSPLH", 0],
  ["[…] (CDR3 as printed); P4I derived by comparing it with the table's wild-type CDR3 ASSPTGGSPSPLH", 0.897],
  ["[…] (CDR3 as printed); A1V derived by comparing it with the table's wild-type CDR3 ASSPTGGSPSPLH", 0.479],
  ["[…] (CDR3 as printed); L12S derived by comparing it with the table's wild-type CDR3 ASSPTGGSPSPLH", 1.12],
  ["[…] (CDR3 as printed); P11F derived by comparing it with the table's wild-type CDR3 ASSPTGGSPSPLH", 0],
  ["[…] (CDR3 as printed); S3D derived by comparing it with the table's wild-type CDR3 ASSPTGGSPSPLH", 3.32],
  ["[…] (CDR3 as printed); P11L derived by comparing it with the table's wild-type CDR3 ASSPTGGSPSPLH", 2.19],
  ["[…] (CDR3 as printed); S3H derived by comparing it with the table's wild-type CDR3 ASSPTGGSPSPLH", 0.783],
  ["[…] (CDR3 as printed); H13C derived by comparing it with the table's wild-type CDR3 ASSPTGGSPSPLH", 6.06],
  ["[…] (CDR3 as printed); P9V derived by comparing it with the table's wild-type CDR3 ASSPTGGSPSPLH", 3.5],
  ["[…] (CDR3 as printed); G7A derived by comparing it with the table's wild-type CDR3 ASSPTGGSPSPLH", 0],
  ["[…] (CDR3 as printed); G7R derived by comparing it with the table's wild-type CDR3 ASSPTGGSPSPLH", 0],
  ["[…] (CDR3 as printed); S2G derived by comparing it with the table's wild-type CDR3 ASSPTGGSPSPLH", 1.01],
  ["[…] (CDR3 as printed); G7E derived by comparing it with the table's wild-type CDR3 ASSPTGGSPSPLH", 0.336],
  ["[…] (CDR3 as printed); L12F derived by comparing it with the table's wild-type CDR3 ASSPTGGSPSPLH", 0],
  ["[…] (CDR3 as printed); P11R derived by comparing it with the table's wild-type CDR3 ASSPTGGSPSPLH", 9.69],
  ["[…] (CDR3 as printed); S10R derived by comparing it with the table's wild-type CDR3 ASSPTGGSPSPLH", 0],
  ["[…] (CDR3 as printed); G7C derived by comparing it with the table's wild-type CDR3 ASSPTGGSPSPLH", 0],
  ["[…] (CDR3 as printed); S8I derived by comparing it with the table's wild-type CDR3 ASSPTGGSPSPLH", 0]
]}
